Test: gradient 5% acetonitrile 3 min, to 50% in 2 min, to 85% in 15 min, held 3 min, 100 µL/min
Conditions: column: Zorbax Extend-C18 2.1 x 50 mm; eluents: water / acetonitrile, 0.1% formic acid
Please respond with TRUE when measured RP-LC retention time is strictly beneath 800 s, and with FALSE in all other cases.

Enquiry: Regarding COc1ccccc1N1CCN(CCN2C(=O)N=C3C(=Nc4ccccc43)C2=O)CC1 , kindly confirm whether its RP-LC retention time is beneath 800 s.
Return: TRUE

Enquiry: Problem: For the molecule Cc1cc2c(=O)n(CC(=O)Nc3ccc(F)c(C)c3)c3cccnc3n2n1 , is RP-LC retention time under 800 s?
Return: TRUE

Enquiry: Is RP-LC retention time of CCc1nc2cc(N3CCCC(C(=O)NC(C)c4cccnc4)C3)cnc2nc1CC (stereo not given) strictly below 800 s?
Return: TRUE

Enquiry: Identify whether the molecule C=CCNC(=O)N1CCCN(C2=NS(=O)(=O)C(c3ccccc3)=C2C)CC1 records RP-LC retention time below 800 s.
Return: TRUE

Enquiry: is_below(RP-LC retention time, 800 s) for COCCN1C(=O)c2ccccc2C(C(=O)NCCC(C)C)C1c1cccs1 (stereo not given) ?
Return: FALSE

Enquiry: For CC1CCC(NC(=O)C2CCCN(S(=O)(=O)c3c[nH]c(C(=O)N4CCCCCC4)c3)C2)CC1 (stereo not given) , is the recorded RP-LC retention time below the cut-off of 800 s?
Return: FALSE

Enquiry: I'd appreciate it if you could check whether COc1ccc2c(c1)C1(CCN(C(=O)Nc3ccccc3C)C1)C(=O)N2C (stereo not given) has RP-LC retention time smaller than 800 s.
Return: TRUE

Enquiry: I'd appreciate it if you could check whether COC(=O)C1=C(C)NC(C)=C(C(=O)OC2CCCN(Cc3ccccc3)C2)C1c1cccc([N+](=O)[O-])c1 (stereo not given) has RP-LC retention time smaller than 800 s.
Return: FALSE

Enquiry: Dear colleague, could you confirm whether RP-LC retention time of CC(C)CCNC(=O)N1CCN(c2cc(-c3ccccc3)ncn2)CC1 falls below 800 s? Thanks.
Return: TRUE

Enquiry: Determine if Cc1nc(-c2csc(S(=O)(=O)N3CCC(C(=O)Nc4ccc(F)c(Cl)c4)CC3)c2)no1 shows RP-LC retention time strictly lower than 800 s.
Return: FALSE

Enquiry: Dear reviewer, please state whether Cc1ccc(CNc2nc3ccncc3n(C(C)C)c2=O)cc1 has RP-LC retention time strictly beneath 800 s.
Return: TRUE

Enquiry: # strict comparison: is reported RP-LC retention time < 800 s? input = CCNc1cc(N2CCCC(CCC(=O)N(C)CCc3ccccn3)C2)ncn1 (stereo not given)
Return: TRUE

Enquiry: Find out if reported RP-LC retention time for COc1ccc(C2C(C(=O)NC(C)C)c3cc(OC)c(OC)cc3C(=O)N2C)cc1OC (stereo not given) is less than 800 s
Return: TRUE

Enquiry: Does the reported RP-LC retention time of COc1ccc(CNc2nc3ccncc3n(Cc3ccccc3)c2=O)cc1 stay below 800 s?
Return: TRUE

Enquiry: Given CCn1ccc2c(cc(C(=O)Nc3cc(F)ccc3F)n2C)c1=O , is recorded RP-LC retention time strictly lower than 800 s?
Return: TRUE

Enquiry: Is RP-LC retention time strictly under 800 s for the entry CC(=O)N(CCC1(C(C)C)CCOC(C)(C)C1)Cc1ccccc1 (stereo not given) ?
Return: FALSE

Enquiry: Lab note: confirm whether the reported RP-LC retention time for this molecule is below 800 s, equality not counting. molecule: Cc1ccccc1NC(=O)N(C)Cc1ccsc1
Return: FALSE

Enquiry: Does the reported RP-LC retention time of the following molecule sit strictly below 800 s? CCOC(=O)c1cccc(NC(=O)N2CCc3nc[nH]c3C2)c1
Return: TRUE

Enquiry: Answer whether the molecule CC1=NS(=O)(=O)N(Cc2ccccc2)C=C1C(=O)OCc1nc(-c2ccc(Cl)cc2)no1 has RP-LC retention time strictly less than 800 s
Return: FALSE
